Assay: Half life in mouse at 100 mg/kg, po
Assay type: ADME, organism-based
Conditions: in vivo
propertyLabel: half-life (min)
Your answer is read as min, so omit the unit and give the number.

half-life reported for this molecule COc1cc(CCc2ccccc2)c(C(=O)O)c(O)c1CC=C(C)C : 120

###

Target: Peroxisome proliferator-activated receptor alpha (Homo sapiens)
Sequence (Q07869 whole entry): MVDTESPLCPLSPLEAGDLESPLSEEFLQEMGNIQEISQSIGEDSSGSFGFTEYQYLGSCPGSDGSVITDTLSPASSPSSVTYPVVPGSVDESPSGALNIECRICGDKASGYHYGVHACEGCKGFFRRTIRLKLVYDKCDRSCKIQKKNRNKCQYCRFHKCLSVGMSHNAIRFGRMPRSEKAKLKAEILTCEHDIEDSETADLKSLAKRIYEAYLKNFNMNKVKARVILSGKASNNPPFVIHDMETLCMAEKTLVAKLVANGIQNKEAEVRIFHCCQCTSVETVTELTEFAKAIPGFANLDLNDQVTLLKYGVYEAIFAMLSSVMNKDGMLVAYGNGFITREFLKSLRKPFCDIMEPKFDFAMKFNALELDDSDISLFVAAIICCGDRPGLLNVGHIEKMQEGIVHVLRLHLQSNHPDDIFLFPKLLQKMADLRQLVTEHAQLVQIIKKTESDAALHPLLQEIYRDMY
Test: Binding affinity to PPARalpha (unknown origin)
propertyLabel: pKi
Remember the convention: pKi equals -log10 of concentration in molar.

pKi recorded for this molecule, COc1ccc2cc3[n+](cc2c1OC)CCc1cc2c(cc1-3)OCO2 , is 6.14

###

Documented Ki across a set of molecules
Molecular target: Peroxisome proliferator-activated receptor gamma (Homo sapiens, UniProt P37231)
Sequence (P37231 whole entry): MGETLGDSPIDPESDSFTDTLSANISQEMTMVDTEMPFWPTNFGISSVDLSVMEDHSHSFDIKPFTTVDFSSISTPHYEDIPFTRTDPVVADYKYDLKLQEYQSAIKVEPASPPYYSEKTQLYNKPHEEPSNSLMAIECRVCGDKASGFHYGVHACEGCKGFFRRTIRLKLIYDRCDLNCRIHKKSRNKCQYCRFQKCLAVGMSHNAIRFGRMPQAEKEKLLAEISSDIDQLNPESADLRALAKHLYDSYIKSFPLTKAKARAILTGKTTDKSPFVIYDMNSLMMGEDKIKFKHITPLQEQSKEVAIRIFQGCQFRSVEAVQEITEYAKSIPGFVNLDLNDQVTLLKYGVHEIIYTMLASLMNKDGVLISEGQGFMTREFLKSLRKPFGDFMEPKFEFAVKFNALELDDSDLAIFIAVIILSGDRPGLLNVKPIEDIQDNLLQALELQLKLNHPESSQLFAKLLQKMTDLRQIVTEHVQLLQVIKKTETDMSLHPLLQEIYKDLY
Assay: Binding affinity to PPARgamma (unknown origin)
Answers without a unit are incomplete; give the number and then its unit.

>>> readoutvalue("CC(C)=CCC[C@@](C)(O)[C@H]1CC[C@]2(C)[C@@H]1[C@H](O)C[C@@H]1[C@@]3(C)CC[C@H](O)C(C)(C)[C@@H]3[C@@H](O)C[C@]12C")
"54.2 µM"

Next molecule, please.
For the molecule Cc1coc2c1C(=O)C(=O)c1c-2ccc2c1CCCC2(C)C , the measured Ki on Peroxisome proliferator-activated receptor gamma (Homo sapiens, UniProt P37231) was 2.56 µM

###

Biological target: Peroxisome proliferator-activated receptor delta (Homo sapiens)
Sequence (Q03181 whole entry): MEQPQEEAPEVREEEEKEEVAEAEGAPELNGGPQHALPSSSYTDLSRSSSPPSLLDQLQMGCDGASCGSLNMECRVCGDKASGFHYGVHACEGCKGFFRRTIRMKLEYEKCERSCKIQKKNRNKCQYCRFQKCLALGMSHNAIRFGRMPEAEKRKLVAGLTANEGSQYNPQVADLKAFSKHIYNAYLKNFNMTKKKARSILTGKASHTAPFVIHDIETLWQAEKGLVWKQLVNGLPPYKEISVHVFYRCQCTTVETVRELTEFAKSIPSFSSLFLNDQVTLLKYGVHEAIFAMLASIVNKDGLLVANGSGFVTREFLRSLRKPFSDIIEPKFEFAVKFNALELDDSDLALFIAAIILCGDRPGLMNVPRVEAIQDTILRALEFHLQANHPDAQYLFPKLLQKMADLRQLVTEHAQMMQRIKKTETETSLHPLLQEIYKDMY
Assay: Agonist activity at PPARdelta (unknown origin)
propertyLabel: pEC50
Value format note: pEC50 is -log10 of concentration (mol/L); just state the number.

Examples with their reported pEC50 follow.
>>> readoutvalue("C=CCc1ccc(O)c(-c2cc(CC=C)ccc2O)c1")
4.94
>>> readoutvalue("COc1ccc2cc3[n+](cc2c1OC)CCc1cc2c(cc1-3)OCO2")
4.85

Form: item O=c1c(O)c(-c2ccc(O)cc2)oc2cc(O)cc(O)c12 ; test system Peroxisome proliferator-activated receptor delta (Homo sapiens); pEC50: 3.47

###

Assay: Cmax in mouse at 100 mg/kg, PO
Assay type: ADME, organism-based
Set-up: dose 100 mg/kg, route po
Settings: in vivo
propertyLabel: Cmax (µg/mL)
Record the value in µg/mL, omitting the unit from your answer.

Entry COc1cc(CCc2ccccc2)c(C(=O)O)c(O)c1CC=C(C)C [AMORFRUTIN A] ; Cmax = 42.4

###

Target: Peroxisome proliferator-activated receptor alpha (Homo sapiens)
Test: Agonist activity at PPARalpha (unknown origin)
propertyLabel: pEC50
pEC50 here: minus log base 10 of the concentration, concentration in moles per litre.

Record excerpt, results attached:
>>> readoutvalue("COc1ccc2cc3[n+](cc2c1OC)CCc1cc2c(cc1-3)OCO2")
6.24
>>> readoutvalue("O=c1c(O)c(-c2ccc(O)cc2)oc2cc(O)cc(O)c12")
4.81

C=C1CC/C=C(\C)CC[C@@H]2[C@@H]1CC2(C)C yielded pEC50 of 5.02

Source of measurements: ChEMBL document CHEMBL5241076
